The following sequences are shown together with reported self-aminoacylation values.
Test system: biotinyl-Phe-oxazolone
Test: self-aminoacylation, catalytic enhancement (BFO) (fold over background); higher = more active; k-Seq, kA / k0A0; sequences stand for … in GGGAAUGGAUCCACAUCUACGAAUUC…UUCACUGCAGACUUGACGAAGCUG
Variants at the floor of the assay were thinned out.
experimentalEndpoint: self-aminoacylation

{"columns": ["sequenceData", "testedOn", "testResult"],
 "data": [
  ["AUCCAACUAGGUCAUCGGGUG [Fam2.2 aminoacylation ribozyme variant]", "biotinyl-Phe-oxazolone", 80.9],
  ["UUGCACCUAGGUCAUCGGGUG [Fam2.2 aminoacylation ribozyme variant]", "biotinyl-Phe-oxazolone", 38.8],
  ["GUUACCCGGGUCAUCGAGUGA [Fam2.1 aminoacylation ribozyme variant]", "biotinyl-Phe-oxazolone", 62.8],
  ["AAGUCUGCUAAGAGUCGCAAG [Fam3.1 aminoacylation ribozyme variant]", "biotinyl-Phe-oxazolone", 4.79],
  ["AUUCACCUAGGACAUCGAGUG [Fam2.2 aminoacylation ribozyme variant]", "biotinyl-Phe-oxazolone", 2.04],
  ["AUUCACCUAGGUCGUCGGUUG [Fam2.2 aminoacylation ribozyme variant]", "biotinyl-Phe-oxazolone", 4.19],
  ["AUACUUCAAAUAAUCGGUCUG [Fam1A.1 aminoacylation ribozyme variant]", "biotinyl-Phe-oxazolone", 5.26],
  ["CUGCUCCAAACAAUCGGUCUG [Fam1A.1 aminoacylation ribozyme variant]", "biotinyl-Phe-oxazolone", 27],
  ["CCAUACUUCAAGCAAUAGGUC [Fam1B.1 aminoacylation ribozyme variant]", "biotinyl-Phe-oxazolone", 1.03]
]}

---

Tested on: biotinyl-Phe-oxazolone
Experiment: self-aminoacylation, catalytic enhancement (BFO) (fold over background); higher = more active; k-Seq, kA / k0A0; sequences stand for … in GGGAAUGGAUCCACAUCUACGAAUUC…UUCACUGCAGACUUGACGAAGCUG
Fewer inactive variants are shown than the library holds.
The following sequences are shown together with reported self-aminoacylation values.

{"columns": ["sequenceData", "self-aminoacylation"],
 "data": [
  ["CUACAUCAAACAAUCCGUCUG [Fam1A.1 aminoacylation ribozyme variant]", 0.983],
  ["AUUACCUUGGUCAUCGCGUGA [Fam2.1 aminoacylation ribozyme variant]", 130],
  ["AAGUUUGCUAGUAGUAGCAAG [Fam3.1 aminoacylation ribozyme variant]", 1.62],
  ["CUACUUCAAGCGAUCGGUCUG [Fam1A.1 aminoacylation ribozyme variant]", 0.917],
  ["AUUAACCUGGUCAUCGUGUGA [Fam2.1 aminoacylation ribozyme variant]", 13.1],
  ["AAAUUUGCUACUAGUCGCAAG [Fam3.1 aminoacylation ribozyme variant]", 1.86],
  ["AAGUUUGCUCAUAGUAGCAAG [Fam3.1 aminoacylation ribozyme variant]", 1.58],
  ["CCACACUACAUGCAAUCGGUC [Fam1B.1 aminoacylation ribozyme variant]", 0.877],
  ["AUUGCCGUGGUCAUCGAGUGA [Fam2.1 aminoacylation ribozyme variant]", 33.7]
]}

---

Test system: biotinyl-Ile-oxazolone
Experiment: self-aminoacylation, catalytic enhancement (BIO) (fold over background); higher = more active; k-Seq, kA / k0A0; sequences stand for … in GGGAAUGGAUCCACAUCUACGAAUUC…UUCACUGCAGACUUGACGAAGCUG
Variants at the floor of the assay were thinned out.
The following sequences are shown together with reported self-aminoacylation values.

{"columns": ["sequenceData", "self-aminoacylation"],
 "data": [
  ["AUUACUCUAGUCAUCGAGUGA [Fam2.1 aminoacylation ribozyme variant]", 2.95],
  ["CUACCUCUAACAAUCGGUCUG [Fam1A.1 aminoacylation ribozyme variant]", 0.8],
  ["CCACAUUUCAAGCACUCGGUC [Fam1B.1 aminoacylation ribozyme variant]", 1.25],
  ["CUACUUCAUACAAUCGGUCCG [Fam1A.1 aminoacylation ribozyme variant]", 0.675]
]}
